ASSAY_INFO: yeast display, Sf9 membrane polyspecificity reagent, FACS + sequencing; frameworks hold sequencing errors
READOUT_NAME: polyreactivity (PSR sort gate)

{"MACROMOLECULE_SEQUENCE": "QDQHVESGGGLVQAGCSLRLSCAASGFIFTYYAMGWYRQAPGKERELVAAISRSGGNTYYADSVKGRFTISRDNAKNTVYFQMYSLKREDTAVYFCAAETRRGGYWGYEYYYWGQGTQVTVSS", "READOUT_NAME": "polyreactivity (PSR sort gate)", "ASSAY_RESULT": "high polyreactivity"}
{"MACROMOLECULE_SEQUENCE": "QVQLVESGGGLVQAGGSLRLSCAASGLTFAYYAMGWYRQAPGKERELVAVISSAGSTYYADSVKGRFTISRDNAKNTVYLQMNSLNPEDTAVYYCAARAPSSISQTRGMYYWGQGTQVTVSS", "READOUT_NAME": "polyreactivity (PSR sort gate)", "ASSAY_RESULT": "high polyreactivity"}
{"MACROMOLECULE_SEQUENCE": "QVQHVESGGGLVQARGSLRLSCAASGFTFLAYAMGWYRQAPGKERELVAAINSSDCTTHYADSVKGRFTISRDYAKNTVYLQMNSLKPVDTAVYYCNTDWAYLSDYWGQGTQVTVSS", "READOUT_NAME": "polyreactivity (PSR sort gate)", "ASSAY_RESULT": "low polyreactivity"}
{"MACROMOLECULE_SEQUENCE": "QVQLVESGGGLVQAGVSLLLSCAASGSTFGYNAMVCYRQAPGKERELVAAITSSGSTTYYADSVKGRFTISRDNAKNSVYLQLNSLKREDTAVYYCNAPAYYLHYGLYARYDYWGQGTQVTVSS", "READOUT_NAME": "polyreactivity (PSR sort gate)", "ASSAY_RESULT": "low polyreactivity"}
{"MACROMOLECULE_SEQUENCE": "QDQLVESGGGLVQAGGSLRLSCAASGITFYTYAMGWSRQAPGKERELVAAISRSGGSTYYADSVKGRITISRDNAKYTVYLQMNSLKPEDSAVYYCAAVYRGRDMDYWGLGTQVTVSS", "READOUT_NAME": "polyreactivity (PSR sort gate)", "ASSAY_RESULT": "high polyreactivity"}
{"MACROMOLECULE_SEQUENCE": "QVQLVESGGGLVQAGGSFRLSCAASGRIFSPNAMGWYRQAPGKEREFVAAINDRGGNTYYADSVKGRFTISRDNAKNTVYLQMNSLKPEDTAVYYCAATVTVFYTRYYYWGQGTQVTVSS", "READOUT_NAME": "polyreactivity (PSR sort gate)", "ASSAY_RESULT": "high polyreactivity"}
{"MACROMOLECULE_SEQUENCE": "QVQLVESGGGLVQAGGSLRLSCAASGFIFRYYAMGWYIQAPGKERELVAAITISGTRTYYADSVKGRFTISRDNAKNTVYLQMNSLKPEDTAVYYCAAYTSVRPKLDYWGQGTQVTVSS", "READOUT_NAME": "polyreactivity (PSR sort gate)", "ASSAY_RESULT": "high polyreactivity"}
{"MACROMOLECULE_SEQUENCE": "QVQLVESGGGLVQAGGSLRLSCAASGIIFYRYAMGWYRQAPGKERELVAAISGSGGRTYYADSVKGRFTISRDNAKNTVYLQMNSLKPEDTAVYYCARVYDIYHYFYAYGGDYWGQGTQVTVSS", "READOUT_NAME": "polyreactivity (PSR sort gate)", "ASSAY_RESULT": "high polyreactivity"}
{"MACROMOLECULE_SEQUENCE": "QVQLVESGGGLVQAGGSLRLSCAASGSIFVSNARVWYRQAPGKERELVAANTSSGSTDYADSVKGRFTISRANAKNTVYLQMNSLKPEDTAVYYCAAESYHTFFLWSLNDSWGQGTQVTVSS", "READOUT_NAME": "polyreactivity (PSR sort gate)", "ASSAY_RESULT": "low polyreactivity"}
{"MACROMOLECULE_SEQUENCE": "QVQLVESGGGLVQAGGSLRLSCAASGSTFCHYAMGWYRQAPGKERELVAAISWSGGSTSYADSVKGRFTISRDNAKNTVFLQMNSLIPEDTAVYYCNKRQEWFHFPYTRGYYWGQGTQVSVSS", "READOUT_NAME": "polyreactivity (PSR sort gate)", "ASSAY_RESULT": "low polyreactivity"}
{"MACROMOLECULE_SEQUENCE": "QVQLVESGGGLVQAGGSLRLSCAASGRIFRFYAMGWYRQAPRKERELVATIRRGDSTSYADSVKGRFTISRDNAKNTVYLQMNSLKPEDTAVYYCAAVWPSHVGTTYFWHKYGYWGQGTQVTVSS", "READOUT_NAME": "polyreactivity (PSR sort gate)", "ASSAY_RESULT": "high polyreactivity"}
